Tested on: SK-MEL-5 melanoma
assay remarks: NCI tumour cell line growth inhibition, 48 h
Classification field: enter true for TGI values not below 8 µM, false for values below it.

| compound | target or test system | category |
| --- | --- | --- |
| OCC12C=CC(C1)c1ccccc12 (configuration not stated) | SK-MEL-5 melanoma | true |
| Cc1ccc(S(=O)(=O)N/N=C2\CCCCC23CCC(=O)NC3)cc1 (configuration not stated) | SK-MEL-5 melanoma | true |
| CCC(CC)NC1=C(NC(C)=O)C(=O)c2ccccc2C1=O | SK-MEL-5 melanoma | true |
| COC1(OC)N=C(N)C2(C#N)C(c3ccccc3)NC3=C(CCC3)C12C#N (configuration not stated) | SK-MEL-5 melanoma | true |
| COc1c(=O)cc2cc[nH]c3cc[nH]c1c23 | SK-MEL-5 melanoma | true |

INPUT: Kindly determine if TGI recorded for COc1cc2c(cc1OCCCCCCCCCCN1C(=O)c3cccc4cccc(c34)C1=O)N=C[C@@H]1CCCN1C2=O is above or exactly 8 µM.
OUTPUT: true

INPUT: Can you check Nn1c(C23CC4CC(CC(C4)C2)C3)n[nH]c1=S next?
OUTPUT: true

INPUT: Can you check O=S(=O)(O)c1ccc(N=Nc2ccc3c(S(=O)(=O)O)cccc3c2O)c2ccccc12 next?
OUTPUT: true

INPUT: Can you check O=C1C=C(Nc2ccccc2C(=O)CC(=O)C(=O)Nc2cccc([N+](=O)[O-])c2)c2ccccc2C1=O next?
OUTPUT: true

INPUT: Can you check Cc1cn(-c2cc(NC(=O)c3cccc(C#Cc4cccc5[nH]nc(N)c45)c3)cc(C(F)(F)F)c2)cn1 next?
OUTPUT: true

INPUT: Can you check CC/C=C\C[C@H]1CC=C2C(=O)C=C[C@@H]2CC=CCCCC(=O)O[C@@H](CCCCC)CC=C2C(=O)C=C[C@@H]2CC=CCCCC(=O)O[C@@H](CCCCC)CC=C2C(=O)C=C[C@@H]2CC=CCCCC(=O)O[C@@H](CCCCC)CC=C2C(=O)C=C[C@@H]2CC=CCCCC(=O)O1 next?
OUTPUT: false

----------
System: SF-268 CNS
assay remarks: NCI tumour cell line growth inhibition, 48 h
observed property: TGI

Below, each entry is followed by its recorded TGI result.
| compound | result |
| --- | --- |
| COC1(OC)N=C(N)C2(C#N)C(c3ccccc3)NC3=C(CCC3)C12C#N (centres undefined) | > 100 µM |
| Cc1ccc2c(ccc(/C=C/c3ccc(O)c4ncccc34)[n+]2C)c1 | 22 µM |
| O=C(NC1=C(Cl)C(=O)c2ccccc2C1=O)c1ccccc1 | > 100 µM |
| C=C(CCOC)CCC1CCCCC(CN(C)C)C1=O (centres undefined) | > 100 µM |
| CSC(SC)(C(=O)O)c1cc(-c2c(Cl)cccc2Cl)no1 | > 100 µM |

INPUT: Which TGI is listed for CCN1C[C@]2(C)CC[C@H](O)C34C1C(C[C@@H]32)[C@@]1(O)CC[C@H]2C[C@@H]4[C@@H]1[C@H]2O ?
OUTPUT: > 100 µM

INPUT: Can you check COc1ccc(CC2COc3cc(OC)cc(OC)c3C2=O)cc1 (centres undefined) next?
OUTPUT: > 100 µM

INPUT: Can you check COc1cc(C2c3cc4c(cc3OC(C)(N3CCCC3)C2C)OCO4)cc(OC)c1OC (centres undefined) next?
OUTPUT: > 92.9 µM

INPUT: Can you check O=C(O)CCCc1ccc2ccc3ccccc3c2c1 next?
OUTPUT: > 100 µM

INPUT: Can you check Nc1ncc(-c2cnn(C3CCNCC3)c2)cc1-c1nc2cc(Cl)ccc2o1 next?
OUTPUT: 2.8 µM

INPUT: Can you check C[C@@H](C(=O)O)N1C(c2ccco2)=C(/C(C=O)=C\c2ccco2)C(=O)/C1=C\c1ccco1 next?
OUTPUT: > 100 µM

INPUT: Can you check COc1ccc(Cn2c3c(cc(OC(C)=O)c2=O)Cc2ccccc2-3)cc1 next?
OUTPUT: 33.8 µM

INPUT: Can you check CCOC1C(Br)Cn2c(=O)c3cc4ccccc4cc3c(=O)n2C1C (centres undefined) next?
OUTPUT: > 100 µM

INPUT: Can you check OC(CC1CCCCN1)c1ccc2c(c1)oc1ccccc12 (centres undefined) next?
OUTPUT: > 100 µM

----------
Tested on: LOX IMVI melanoma
assay remarks: NCI tumour cell line growth inhibition, 48 h
observed property: TGI (µM)
Supply the numeric figure in µM, leaving out any unit text.

Below, each entry is followed by its recorded TGI result.
| structure smiles string | unit annotation | TGI |
| --- | --- | --- |
| CCOC(=O)Nc1cc2c(c(N)n1)N=C(c1ccc(OC)cc1)CN2 | µM | 3.15 |
| COc1cc2c(cc1OCCCCCCCCCCN1C(=O)c3cccc4cccc(c34)C1=O)N=C[C@@H]1CCCN1C2=O | µM | 4.99 |
| N/N=C\c1c2ccccc2c(=O)n2c1oc1ccccc12 | µM | 29.9 |

Continue with the next molecule.
INPUT: Give recorded TGI with LOX IMVI melanoma for the following molecule: C[C@]12CCc3sc(Nc4ccc(OC(F)(F)F)cc4)nc3C1=CC[C@@H]1[C@@H]2CC[C@]2(C)C(=O)CC[C@@H]12
OUTPUT: 3.18

----------
Tested on: SNB-19 CNS
assay remarks: NCI tumour cell line growth inhibition, 48 h
observed property: TGI

Below, each entry is followed by its recorded TGI result.
| compound | TGI |
| --- | --- |
| Nn1c(C23CC4CC(CC(C4)C2)C3)n[nH]c1=S | > 100 µM |
| COc1cc(NS(=O)(=O)c2ccc(C)cc2)c2nccnc2c1 | > 100 µM |
| O=NNc1ccc2ccccc2n1 | > 100 µM |
| CN(C)C/C=C/C(=O)Nc1ccc(C(=O)N[C@@]2(C)CCC[C@@H](Nc3ncc(Cl)c(-c4c[nH]c5ccccc45)n3)C2)nc1 | 1.07 µM |
| O=C1N/C(=C\[N+](=O)[O-])c2ccccc21 | > 100 µM |
| O=C1C=C(C2OC(CO)C(O)C2O)C(=O)N1 (centres undefined) | > 100 µM |
| Cn1c(Cl)c(/C=C2/C(=O)Nc3ccccc32)c2ccccc21 | 29.9 µM |
| O=c1oc2ccccc2c(Nc2ccc3c(c2)Sc2ccccc2O3)c1[N+](=O)[O-] | > 100 µM |

INPUT: Which TGI is listed for CNC(=O)OCc1nc(SSC(C)(C)C)n(C)c1COC(=O)NC ?
OUTPUT: 33.9 µM

----------
System: CCRF-CEM leukemia
assay remarks: NCI tumour cell line growth inhibition, 48 h
observed property: TGI

Below, each entry is followed by its recorded TGI result.
| compound | TGI |
| --- | --- |
| C#CC1(O)C(COP(=O)(O)OCC(COP(=O)(O)OCC2OC(n3cc(F)c(=O)[nH]c3=O)CC2O)OCCCCCCCCCCCCCCCCCC)OC(n2ccc(N)nc2=O)C1O (stereo not given) | > 39.7 µM |
| Nc1ncnc2c1ncn2C1C=C(CO)C(O)C1O (stereo not given) | 14 µM |
| O=C1C(=O)c2ccccc2C(O)=C1C(C1=C(O)c2ccccc2C(=O)C1=O)c1ccc(Cl)cc1 | > 46 µM |
| O=C1N/C(=C\[N+](=O)[O-])c2ccccc21 | > 100 µM |
| O=C(NN1C(=O)C(Cl)C1c1ccc(Cl)cc1)c1c(Cl)c(Cl)c(Cl)c(Cl)c1-c1nc2ccccc2[nH]1 (stereo not given) | > 100 µM |

INPUT: Which TGI is listed for Cc1c(-c2ccccc2)cc(O)c2nc3ccccc3n12 ?
OUTPUT: > 100 µM

INPUT: Can you check O=C(Nc1ccc(C(F)(F)F)cc1[N+](=O)[O-])C(=O)C1NC(=S)NC1=O (stereo not given) next?
OUTPUT: > 100 µM

----------
Test system: SK-MEL-5 melanoma
assay remarks: NCI tumour cell line growth inhibition, 48 h
Items are presented alongside their recorded TGI.
Supply the numeric figure in µM, leaving out any unit text.

| structure smiles string | TGI (µM) |
| --- | --- |
| CCOc1cccc(/C=N/NC(=O)c2cccc(Nc3ccnc(C(F)(F)F)c3)c2)c1O | 7.84 |
| CCN1C(=O)c2ccc3c4c(ccc(c24)C1=O)C(=O)N(CCCNCc1ccccc1OC)C3=O | 0.319 |

Continue with the next compound.
INPUT: Which TGI is listed for COc1cccc2c1C(=N)c1c(O)c3c(c(O)c1C2=O)C[C@@](O)(C(C)=O)C[C@@H]3O[C@H]1C[C@H](N)[C@H](O)[C@H](C)O1 ?
OUTPUT: 2.17

----------
System: LOX IMVI melanoma
assay remarks: NCI tumour cell line growth inhibition, 48 h
observed property: TGI

Below, each entry is followed by its recorded TGI result.
| molecule | TGI |
| --- | --- |
| C=C(C)C1CC2(C)C(C)CC(O)CC2C(OC(=O)C=C(C)C)C1O (stereo unspecified) | > 100 µM |
| CC(=O)c1ccc(NC(=O)/C(CC(=O)c2sc(-c3cccnc3)nc2C)=N/NC(N)=O)cc1 | > 100 µM |
| NC(=Nc1ccccc1Cl)c1ccccc1N | > 100 µM |
| O=C(Oc1ccc[nH]c1=O)c1cc([N+](=O)[O-])cc([N+](=O)[O-])c1 | > 100 µM |
| CCCCCCCCCC[C@@H](OC(C)=O)[C@@H]1CC[C@@H]([C@@H]2CC[C@@H]([C@@H](O)CC#C/C=C/CCCCCCC[C@@]3(Sc4ccccc4)C[C@H](C)OC3=O)O2)O1 | > 10 µM |

INPUT: Which TGI is listed for [N-]=[N+]=NCCCn1c2c(c3ccc([N+](=O)[O-])cc3c1=O)C(=O)c1ccccc1-2 ?
OUTPUT: > 100 µM

The origin of these recorded values is PubChem BioAssay (NCI).
